subject.of.test: PPARG (peroxisome proliferator activated receptor-gamma), GST-PPARG-LBD (Homo sapiens, UniProt P37231)
Construct: 15 μL of 5 nM GST-PPARG-LBD and 5 nM Tb-GST-antibody were added; purchased Invitrogen PV4894
Sequence (P37231 238-503 limits assumed): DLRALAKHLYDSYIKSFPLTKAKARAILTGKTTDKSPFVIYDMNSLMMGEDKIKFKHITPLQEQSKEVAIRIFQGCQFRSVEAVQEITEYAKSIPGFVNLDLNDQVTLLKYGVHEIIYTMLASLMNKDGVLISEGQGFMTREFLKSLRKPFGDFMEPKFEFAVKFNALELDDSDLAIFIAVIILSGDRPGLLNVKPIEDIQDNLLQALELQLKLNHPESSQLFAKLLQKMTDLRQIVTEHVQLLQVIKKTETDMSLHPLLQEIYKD
test.protocol: LanthaScreen TR-FRET PPARG Competitive Binding Assay
Parameters: key: “+” indicates the degree of the binding activity, and as the number of “+” increases, the binding activity is stronger; ++: “+” indicates the degree of the binding activity, and as the number of “+” increases, the binding activity is stronger; +++: “+” indicates the degree of the binding activity, and as the number of “+” increases, the binding activity is stronger; ++++: “+” indicates the degree of the binding activity, and as the number of “+” increases, the binding activity is stronger
setup.conditions: degree of binding activity
measured.attribute: Binding assay (1 μLM)

Consider the worked cases shown below.
                                   compound  observed_measurement
0  C[C@H](NC(=O)c1ccc2c(c1)OCCN2Cc1ccc(-c2ccccc2C(=O)O)cc1)c1ccccc1                     +
1  NC(=O)c1ccccc1-c1ccc(CN2CCOc3cc(C(=O)NCc4cccnc4)ccc32)cc1                     +
2  O=C(NCCc1ccccc1)c1ccc2c(c1)OCCN2Cc1ccc(-c2ccccc2C(=O)O)cc1                    ++
3  O=C(NCc1ccccc1)c1ccc2c(c1)CCCN2Cc1ccc(-c2ccccc2C(=O)O)cc1                  ++++
4  Cc1ccc([C@H](C)NC(=O)c2ccc3c(c2)CCCN3Cc2cc(-c3ccccc3C(N)=O)ccc2F)cc1F                   +++
5  C[C@H](NC(=O)c1ccc2c(c1)OCCN2Cc1ccc(-c2ccccc2C(=O)[O-])cc1)c1ccccc1.[Na+]                    ++
6  C[C@H](NC(=O)c1ccc2c(c1)CCCN2Cc1ccc(-c2ccccc2C(=O)O)cc1)c1ccc(OC(F)(F)F)cc1                  ++++
7  O=C(NCc1ccc2c(c1)OCCO2)c1ccc2c(c1)OCCN2Cc1ccc(-c2ccccc2C(=O)O)cc1                    ++
8  COc1ccccc1[C@H](C)NC(=O)c1ccc2c(c1)CCCN2Cc1ccc(-c2ccccc2C(=O)O)cc1                   +++
9  O=C(NCc1ccccc1)c1ccc2c(c1)OCCN2Cc1ccc(-c2ccccc2C(=O)O)cc1 [Example 91]                   +++

(Q) Please supply the value of reported Binding assay (1 μLM) for the item C[C@H](NC(=O)c1ccc2c(c1)CCCN2Cc1ccc(-c2ccccc2C(=O)O)cc1)c1ccc(C(F)(F)F)cc1
(A) ++++

(Q) Please supply the value of reported Binding assay (1 μLM) for the item C[C@H](NC(=O)c1ccc2c(c1)CCCN2Cc1ccc(-c2ccccc2C(=O)O)cc1)c1ccc([N+](=O)[O-])cc1
(A) +

(Q) Please supply the value of reported Binding assay (1 μLM) for the item C[C@H](NC(=O)c1ccc2c(c1)CCCN2Cc1cccc(-c2ccccc2C(=O)O)c1F)c1ccccc1
(A) +++

(Q) Please supply the value of reported Binding assay (1 μLM) for the item C[C@H](NC(=O)c1ccc2c(c1)CCCN2Cc1ccc(-c2ccccc2C(=O)O)cc1)c1ccc(C#N)cc1
(A) ++

(Q) Please supply the value of reported Binding assay (1 μLM) for the item C[C@H](NC(=O)c1ccc2c(c1)CCCN2Cc1ccc(-c2ccccc2C(N)=O)cc1)c1ccccc1F
(A) +++

###

subject.of.test: CYP 2D6 (Homo sapiens)
Construct: purchased Invitrogen P2862
test.protocol: CYP (cytochrome P450)-suppressing effect, Invitrogen Vivid kit
Assay type: in vitro ADME
measured.attribute: CYP(10 μL, %) 2D6

>>> df
                                   compound         subject_of_test  observed_measurement
0  C[C@H](NC(=O)c1ccc2c(c1)CCCN2Cc1ccc(-c2ccccc2C(=O)O)cc1)c1ccc(C#N)cc1 [Example 14]  CYP 2D6 (Homo sapiens)                 86.13
1  C[C@H](NC(=O)c1ccc2c(c1)OCCN2Cc1ccc(-c2ccccc2C(=O)O)cc1)c1ccc([N+](=O)[O-])cc1 [Example 60]  CYP 2D6 (Homo sapiens)                 62.27
2  C[C@H](NC(=O)c1ccc2c(c1)CCCN2Cc1cccc(-c2ccccc2C(N)=O)c1F)c1ccc([N+](=O)[O-])cc1 [Example 131]  CYP 2D6 (Homo sapiens)                 86.92
3  C[C@H](NC(=O)c1ccc2c(c1)CCCN2Cc1cccc(-c2ccccc2C(N)=O)c1)c1ccc([N+](=O)[O-])cc1 [Example 123]  CYP 2D6 (Homo sapiens)                 82.48
4  C[C@H](NC(=O)c1ccc2c(c1)CCCN2Cc1ccc(-c2ccccc2C(N)=O)cc1)c1ccc(F)cc1 [Example 36]  CYP 2D6 (Homo sapiens)                 75.73
5  C[C@H](NC(=O)c1ccc2c(c1)OCCN2Cc1ccc(-c2ccccc2C(=O)O)cc1)c1ccc(C#N)cc1 [Example 74]  CYP 2D6 (Homo sapiens)                 83.97
6  C[C@H](NC(=O)c1ccc2c(c1)OCCN2Cc1ccc(-c2ccccc2C(=O)O)cc1)c1ccccc1 [Example 58]  CYP 2D6 (Homo sapiens)                 55.23

###

subject.of.test: CYP 2D6 (Homo sapiens, UniProt P10635)
Construct: purchased Invitrogen P2862
Sequence (P10635 whole entry): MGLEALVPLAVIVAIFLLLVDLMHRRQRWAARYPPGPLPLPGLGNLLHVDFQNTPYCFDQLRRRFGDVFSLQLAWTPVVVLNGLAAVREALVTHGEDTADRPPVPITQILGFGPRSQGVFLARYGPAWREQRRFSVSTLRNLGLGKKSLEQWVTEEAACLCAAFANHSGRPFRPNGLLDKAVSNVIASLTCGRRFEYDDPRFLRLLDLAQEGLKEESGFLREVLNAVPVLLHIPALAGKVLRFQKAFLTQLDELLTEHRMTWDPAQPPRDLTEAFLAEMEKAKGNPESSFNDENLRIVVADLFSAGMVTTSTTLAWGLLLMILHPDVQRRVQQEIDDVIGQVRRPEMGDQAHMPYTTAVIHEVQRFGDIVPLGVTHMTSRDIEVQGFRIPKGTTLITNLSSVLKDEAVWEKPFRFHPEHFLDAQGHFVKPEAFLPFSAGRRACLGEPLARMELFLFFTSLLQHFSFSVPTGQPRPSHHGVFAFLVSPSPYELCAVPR
test.protocol: CYP (cytochrome P450)-suppressing effect, Invitrogen Vivid kit
Format: in vitro ADME
measured.attribute: CYP(10 μL, %) 2D6

Consider the worked cases shown below.
compound	subject.of.test	CYP(10 μL, %) 2D6
C[C@H](NC(=O)c1ccc2c(c1)CCCN2Cc1ccc(-c2ccccc2C(N)=O)cc1)c1ccc2ccccc2c1 [Example 44]	CYP 2D6 (Homo sapiens, UniProt P10635)	97.07
Cc1ccc([C@H](C)NC(=O)c2ccc3c(c2)CCCN3Cc2ccc(-c3ccccc3C(=O)[O-])cc2)cc1F.[Na+] [Example 56]	CYP 2D6 (Homo sapiens, UniProt P10635)	94.15
C[C@H](NC(=O)c1ccc2c(c1)CCCN2Cc1ccc(-c2ccccc2C(=O)O)cc1F)c1ccc(C#N)cc1 [Example 110]	CYP 2D6 (Homo sapiens, UniProt P10635)	88.44
C[C@H](NC(=O)c1ccc2c(c1)CCCN2Cc1ccc(-c2ccccc2C(N)=O)cc1F)c1ccc2ccccc2c1 [Example 115]	CYP 2D6 (Homo sapiens, UniProt P10635)	95.56

P = C[C@H](NC(=O)c1ccc2c(c1)OCCN2Cc1ccc(-c2ccccc2C(N)=O)cc1)c1ccc2ccccc2c1 [Example 96]
Q = Cc1c(C)n(Cc2ccc(-c3ccccc3C(=O)O)cc2)c2ccc(C(=O)NC(C)c3ccc(Br)cc3)cc12 (stereo not drawn) [2 (SR1824), SR1824, reference compound]
(Q) Looking only at measured CYP(10 μL, %) 2D6, which entry is lower, P or Q ? Could you answer with the label of the item you picked?
(A) Q

###

subject.of.test: PPARG (peroxisome proliferator activated receptor-gamma), GST-PPARG-LBD (Homo sapiens)
Construct: 15 μL of 5 nM GST-PPARG-LBD and 5 nM Tb-GST-antibody were added; purchased Invitrogen PV4894
test.protocol: LanthaScreen TR-FRET PPARG Competitive Binding Assay
Design: key: “+” indicates the degree of the binding activity, and as the number of “+” increases, the binding activity is stronger; ++: “+” indicates the degree of the binding activity, and as the number of “+” increases, the binding activity is stronger; +++: “+” indicates the degree of the binding activity, and as the number of “+” increases, the binding activity is stronger; ++++: “+” indicates the degree of the binding activity, and as the number of “+” increases, the binding activity is stronger
setup.conditions: degree of binding activity
measured.attribute: Binding assay (1 μLM)

Consider the worked cases shown below.
>>> print(df.to_string())
                         chemical_structure                           subject_of_test  observed_measurement
0  O=C(NCc1ccc([N+](=O)[O-])cc1)c1ccc2c(c1)CCCN2Cc1ccc(-c2ccccc2C(=O)O)cc1  PPARG (peroxisome proliferator activated receptor-gamma), GST-PPARG-LBD (Homo sapiens)                   +++
1  C[C@H](NC(=O)c1ccc2c(c1)CCCN2Cc1ccccc1-c1ccc(C(N)=O)cc1)c1ccccc1  PPARG (peroxisome proliferator activated receptor-gamma), GST-PPARG-LBD (Homo sapiens)                    ++
2  O=C(NCc1ccc([N+](=O)[O-])cc1)c1ccc2c(c1)OCCN2Cc1ccc(-c2ccccc2C(=O)O)cc1  PPARG (peroxisome proliferator activated receptor-gamma), GST-PPARG-LBD (Homo sapiens)                     +
3  C[C@H](NC(=O)c1ccc2c(c1)CCCN2Cc1ccccc1-c1ccc(C(=O)O)cc1)c1ccccc1  PPARG (peroxisome proliferator activated receptor-gamma), GST-PPARG-LBD (Homo sapiens)                    ++
4  C[C@H](NC(=O)c1ccc2c(c1)OCCN2Cc1ccccc1-c1ccc(C(=O)O)cc1)c1ccc(C#N)cc1  PPARG (peroxisome proliferator activated receptor-gamma), GST-PPARG-LBD (Homo sapiens)                     +
5  C[C@H](NC(=O)c1ccc2c(c1)OCCN2Cc1ccc(-c2ccccc2C(N)=O)cc1)c1ccc2ccccc2c1  PPARG (peroxisome proliferator activated receptor-gamma), GST-PPARG-LBD (Homo sapiens)                   +++

(Q) Please supply the value of reported Binding assay (1 μLM) for the item O=C(NCc1ccncc1)c1ccc2c(c1)CCCN2Cc1ccc(-c2ccccc2C(=O)O)cc1
(A) +

(Q) Please supply the value of reported Binding assay (1 μLM) for the item C[C@H](NC(=O)c1ccc2c(c1)CCCN2Cc1ccc(-c2ccccc2C(N)=O)cc1)c1ccc(C(F)(F)F)cc1
(A) +++

The origin of these recorded values is patent US20160355483A1.
